test-target: human orexin type 2 receptor (Homo sapiens)
Construct: expressed in transfected cells
experimental-protocol: Measurement of orexin type 2 receptor agonist activity (calcium fluorescence, Fluo-4 AM, FDSS)
Format: cell-based
condition-context: test compound 3 μM; CHO cells expressing human OX2 receptor; DMSO = 0%, orexin A (human) = 100%
From the text: To obtain a cell clone stably expressing human orexin type 2 receptor, human orexin type 2 receptor cDNA was inserted into pcDNA3.1(+) plasmid vector (Invitrogen), and a plasmid DNA for expression of human orexin type 2 receptor (pcDNA3.1(+)/hOX2R) was cloned. The plasmid DNA was introduced into CHO-K1 cell by an electroporation method, and human orexin type 2 receptor expressing clone cells were obtained by limiting dilution method by using G418 drug resistance as a selection marker. […]
measurement-label: OX2R agonist activity (3 μM, %)
Dear colleague, please return just the value in %, with no unit written.

Reference set, count: 4
- molecule: "CCS(=O)(=O)N[C@@H]1CN(C(=O)[C@@H]2C[C@H]2c2ccccc2-c2c(F)cccc2F)CCC1(F)F"
  endpoint-unit: "%"
  OX2R agonist activity (3 μM, %): 100
- molecule: "CS(=O)(=O)NC1CCN(C(=O)C2CC2c2ccccc2-c2c(F)cccc2Cl)C1 (racemic)"
  endpoint-unit: "%"
  OX2R agonist activity (3 μM, %): 92
- molecule: "CS(=O)(=O)NC1CCCN(C(=O)C2CC2c2c(F)cccc2-c2c(F)cccc2F)C1 (racemic) [Example 31]"
  endpoint-unit: "%"
  OX2R agonist activity (3 μM, %): 101
- molecule: "COCS(=O)(=O)N[C@H]1CCCN(C(=O)C2CC2c2ccccc2-c2c(F)cccc2F)C1 (mixture of isomers)"
  endpoint-unit: "%"
  OX2R agonist activity (3 μM, %): 95

Now for another entry.
// query Fill in the blank: the reported OX2R agonist activity (3 μM, %) of CS(=O)(=O)NC1CCCN(C(=O)C2CC2c2cccc(F)c2-c2ccccc2F)CC1 (racemic) is ____.
// result 63

----------
test-target: human orexin type 2 receptor (Homo sapiens, UniProt O43614)
Construct: expressed in transfected cells
Sequence (O43614 whole entry): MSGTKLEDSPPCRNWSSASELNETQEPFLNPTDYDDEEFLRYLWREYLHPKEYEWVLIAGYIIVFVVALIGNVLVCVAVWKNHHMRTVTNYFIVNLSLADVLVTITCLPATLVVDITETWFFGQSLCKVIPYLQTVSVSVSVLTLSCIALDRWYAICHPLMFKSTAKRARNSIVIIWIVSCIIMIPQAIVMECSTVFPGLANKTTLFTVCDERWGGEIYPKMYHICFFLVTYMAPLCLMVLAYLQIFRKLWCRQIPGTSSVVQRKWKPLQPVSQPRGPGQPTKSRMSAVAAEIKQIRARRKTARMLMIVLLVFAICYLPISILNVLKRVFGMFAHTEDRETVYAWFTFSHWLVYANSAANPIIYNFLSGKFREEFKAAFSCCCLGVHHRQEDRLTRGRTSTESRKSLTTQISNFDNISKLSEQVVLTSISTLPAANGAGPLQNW
experimental-protocol: Measurement of orexin type 2 receptor agonist activity (calcium fluorescence, Fluo-4 AM, FDSS)
Format: cell-based
condition-context: test compound 3 μM; CHO cells expressing human OX2 receptor; DMSO = 0%, orexin A (human) = 100%
Catalogue of OX2R agonist activity (3 μM, %) readings, one per entry.
The figure you give is taken to be in %; do not add the unit.

Solved entries:
- compound: "CS(=O)(=O)NC1CCCN(C(=O)C2CC2c2ccc(F)cc2-c2c(F)cccc2F)CC1 (racemic)"
  OX2R agonist activity (3 μM, %): 100
- compound: "O=C([C@@H]1C[C@@]1(F)c1ccc(F)cc1-c1c(F)cccc1F)N1C[C@@H](F)[C@H]1CNS(=O)(=O)N1CCC1"
  OX2R agonist activity (3 μM, %): 100
- compound: "CS(=O)(=O)NC1CCCN(C(=O)C2CC2c2ccccc2-c2c(F)cccc2F)CC1 (racemic)"
  OX2R agonist activity (3 μM, %): 106
- compound: "O=C([C@@H]1C[C@@]1(F)c1ccc(F)cc1-c1c(F)cccc1F)N1C[C@@H](F)[C@H]1CNS(=O)(=O)CBr"
  OX2R agonist activity (3 μM, %): 95
- compound: "CS(=O)(=O)NC1CCCN(C(=O)C2CC2c2cnccc2-c2c(F)cccc2F)CC1 (racemic)"
  OX2R agonist activity (3 μM, %): 87
- compound: "Cc1cccc(C2CC2C(=O)N2CCCC(NS(C)(=O)=O)C2)c1-c1ccccc1 (racemic)"
  OX2R agonist activity (3 μM, %): 64

Now for a further compound.
// query Returns the measured OX2R agonist activity (3 μM, %) for the input compound. Input: CCS(=O)(=O)NC(C)[C@@H]1[C@H](F)CN1C(=O)[C@@H]1C[C@@]1(F)c1ccccc1-c1c(F)cccc1F (stereo partly shown)
// result 97
